test system: SR leukemia; experiment: NCI tumour cell line growth inhibition, 48 h; in the data active means GI50 below about 0.43 µM; inactive means the rest
Labels: true for active, false for inactive

compound	label-class
CC(C)(C)[Si](C)(C)OC1[C@@H](O[Si](C)(C)C(C)(C)C)[C@@H](CNC(=O)NC(=O)NC(=O)CI)O[C@H]1n1cnc2c(NC(=O)Nc3ccccc3)ncnc21 (stereo not given in full)	true
Cc1c(C(=O)CCl)c(=O)n(-c2ccccc2)n1C	false
C=C1C(=O)O[C@H]2[C@H]1CC/C(COC(=O)/C=C/c1cccnc1)=C\CC[C@@]1(C)O[C@@H]21	false
CC1=C(C(=O)Nc2ccc(F)c(Cl)c2)C(c2cccc(O)c2)NC(=S)N1 (stereo not given)	false
COc1cccc(-c2nc(-c3ccc(NS(=O)(=O)c4ccccc4)cc3)[nH]c2-c2ccnc(Br)c2)c1	false
COc1ccc(/C=C\c2cc(OC)c(OC)c(OC)c2)cc1NC(=O)[C@@H](N)CO	true
COc1ccc(/C=C(\C#N)n2nnc3cc(Cl)ccc32)cc1	true
Clc1ccc(Nc2ccnc(NCCNc3ccnc4cc(Cl)ccc34)n2)cc1	false
O=C(Oc1cccc(Nc2ncnc3ccccc23)c1)c1ccccc1Cl	false
COc1ccc(C(=O)c2cc(OC)c(OC)c(OC)c2)cc1/C=C/C(=O)c1ccc(O)cc1	false

---

tested on: HOP-62 NSCLC; assay: NCI tumour cell line growth inhibition, 48 h

molecule	unit-text	result-operator	TGI
CN(C)Cc1cc(N=Nc2c(Cl)cccc2Cl)ccc1O	µM	>	100
CCC12CCC(O)C1N(C)CCC2Sc1ccccc1 (stereo not given)	µM	>	100
COC1/C=C/C(C)C(C(C)C(OC)C(C)CCC(=O)C(C)C(CC(=O)O)OC)OC(=O)/C=C/C=C(\C)CC(OC)C(OC)C2=CC(=O)O[C@@H](C(C)C(OC)CC(OC)/C=C/C(C)C(O)C1)[C@H]2O (stereo not given in full)	µM	=	0.468
CCOC(=O)Nn1cnnc1Cc1ccccc1	µM	>	100
Nc1nc(SCC(=O)O)[nH]c(=O)c1N	µM	>	100
C=C1C(=O)OC2C1C(OC(=O)/C(C)=C/C)CC(O)(CCl)C1C(OC(C)=O)C=C(C)C21O (stereo not given)	µM	>	66
C=C(CN1CCc2ccccc2C1)c1ccc(/C=C/C(=O)Nc2ccccc2N)cc1	µM	>	100
COc1cc(-c2cc(C(=O)Nc3nc4ccccc4s3)nc3cc(-c4ccccc4)nn23)cc(OC)c1OC	µM	=	27.2
O=C1C(c2ccc(Cl)cc2)=[N+]([O-])c2ccccc21	µM	=	78.5
O=C(c1c(F)c(F)c(F)c(F)c1F)n1c(=O)[nH]c2ccccc21	µM	=	31.6

---

test system: DU-145 prostate; test: NCI tumour cell line growth inhibition, 48 h; in the data active = GI50 below about 0.43 µM; inactive = the rest
Labels: active, inactive

smiles-text	label-class
C=C1C(=O)O[C@H]2[C@H]1CC/C(COC(=O)/C=C/c1cccnc1)=C\CC[C@@]1(C)O[C@@H]21	inactive
COc1c(O)cc2oc3cc(O)c(CC=C(C)C)c(O)c3c(=O)c2c1C/C=C(\C)CCC=C(C)C	inactive
COC(=O)C/C(C)=C/[C@@H](O)[C@H]1O[C@@H]2CC/C(Cl)=C/C/C=C(/C)[C@H](OC(C)=O)CC(=O)O[C@@H]1C2	inactive
Cc1c2ncccc2c(C)c2c1[nH]c1ccc(O)cc12	inactive
COc1ccc(/C=C/C(=O)/C=C(/C=C/c2ccc(OC)c(OC)c2)OB(F)F)cc1OC	inactive
CS(=O)(=O)c1ccc(Oc2nccc(-c3c(-c4ccc(F)cc4)ncn3C3CCNCC3)n2)cc1	inactive
Cn1cc(-c2nc(-c3c[nH]c4ncccc34)cs2)c2cc(Cl)ccc21	inactive
O=C1c2[nH]cc(CN[C@@H]3CCCN3)c2C(=O)c2c1c(O)c1ccccc1c2O	inactive
COc1ccc2c(CN3CCC(CO)CC3)cc3cc4c(cc3c2c1)OCO4	active
